# Test system: Aspergillus fumigatus
# Method notes: Antifungal activity against Aspergillus fumigatus RCMB 002003 at 10 mg/ml after 3 to 4 days by agar well diffusion method
# Type: functional
# Measurement context: read-out: IZ
Property: zone of inhibition at 10000 µg/mL; scope: individual compounds
Test readout: zone of inhibition at 10000 µg/mL (mm)

INSERT INTO measurements (compound, reported_measurement) VALUES
  ('Cc1cc(C)n(N2C(=O)c3c(Br)c(Br)c(Br)c(Br)c3C2=O)c(=O)c1C#N', 22.5),
  ('Cc1cc(C)n(NC(=O)Nc2ccccc2)c(=O)c1C#N', 9.2),
  ('Cc1cc(C)n(N/C=C(\Nn2c(C)cc(C)c(C#N)c2=O)c2ccccc2)c(=O)c1C#N', 10),
  ('Cc1cc(C)n(N2C(=O)c3ccccc3C2=O)c(=O)c1C#N', 19.2),
  ('Cc1ccc2c(c1)cc(/C=N/n1c(C)cc(C)c(C#N)c1=O)c1nnnn12', 15.2),
  ('Cc1cc(C)n(/N=C/c2cc3ccccc3n3nnnc23)c(=O)c1C#N', 11.2),
  ('Cc1cc(C)n(/N=C/c2c(C)nn(-c3ccccc3)c2Cl)c(=O)c1C#N', 10.3),
  ('Cc1cc(C)n(/N=C/c2cc3ccccc3nc2Cl)c(=O)c1C#N', 13.3),
  ('Cc1cc(C)n(NC(=S)Nc2ccccc2)c(=O)c1C#N', 10.2),
  ('Cc1cc(C)n(/N=C/c2cn(-c3ccccc3)nc2-c2cc3ccccc3o2)c(=O)c1C#N', 14.2);

Data provenance: ChEMBL document CHEMBL1828592
